Data provenance: ChEMBL document CHEMBL4613208

system: Klebsiella pneumoniae; test: Antibacterial activity against Klebsiella pneumoniae; format: functional
Entries and their measured MIC follow.

>>> valueobserved("Cc1ccc2c(c1)C(=O)C(=O)N2CN1CCN(c2cc3c(cc2F)c(=O)c(C(=O)O)cn3C2CC2)CC1")
"0.1 to 0.5 µg/mL"
>>> valueobserved("CCn1cc(C(=O)O)c(=O)c2cc(F)c(N3CCNC(C)C3)c(F)c21 (stereo unspecified)")
"0.25 to 2.5 µg/mL"
>>> valueobserved("CC1S/C(=N/N=C2\\C(=O)Nc3ccc(S(=O)(=O)N4CCOCC4)cc32)N(c2ccccc2)C1=O (stereo unspecified)")
"0.03 to 3.9 µg/mL"
>>> valueobserved("CC1(C)S[C@@H]2[C@H](NC(=O)[C@H](N)c3ccccc3)C(=O)N2[C@H]1C(=O)O")
"0.007 to 1.95 µg/mL"
>>> valueobserved("O=C1C(=O)N(CN2CCN(c3cc4c(cc3F)c(=O)c(C(=O)O)cn4C3CC3)CC2)c2ccccc21")
"0.1 to 0.5 µg/mL"

Let us examine a further case.
# MIC lookup, item `O=C1Nc2ccc(S(=O)(=O)N3CCOCC3)cc2C1=O`
0.007 to 0.49 µg/mL

---

system: Shigella dysenteriae; test: Antibacterial activity against Shigella dysenteriae after 24 hrs by agar well diffusion technique; type: functional
Entries and their measured MIC follow.

>>> valueobserved("Cc1cc(NS(=O)(=O)c2ccc(/N=C3\\C(=O)Nc4ccc(Cl)cc43)cc2)no1")
"1 to 15 µg/mL"
>>> valueobserved("Cc1cc(NS(=O)(=O)c2ccc(N)cc2)no1 [SULFAMETHOXAZOLE]")
"2.5 µg/mL"
>>> valueobserved("Cc1ccc2c(c1)/C(=N/c1nc3ccccc3[nH]1)C(=O)N2")
"1 to 15 µg/mL"
>>> valueobserved("Cc1cc(NS(=O)(=O)c2ccc(/N=C3\\C(=O)N(CO)c4ccccc43)cc2)no1")
"1 to 15 µg/mL"
>>> valueobserved("COc1cc(/C=N/N2C(N)=NNC23C(=O)Nc2ccc(C)cc23)ccc1O (stereo unspecified)")
"1 to 15 µg/mL"

Let us examine a further case.
# MIC lookup, item `Cc1ccc2c(c1)/C(=N/c1ccc(S(=O)(=O)Nc3cc(C)on3)cc1)C(=O)N2`
1 µg/mL

---

Entries and their measured MIC follow.
system: Staphylococcus aureus; assay: Antibacterial activity against Staphylococcus aureus after 24 hrs by paper disc diffusion technique; assay type: functional; conditions: Staphylococcus aureus, 24 h; read-out: MIC

# MIC lookup, item `O=C(O)c1cn(C2CC2)c2cc(N3CCN(CN4C(=O)/C(=N/c5ccc(/N=C/c6ccccc6O)cc5)c5cc(F)ccc54)CC3)c(F)cc2c1=O`
7.81 to 125 µg/mL

---

experiment: Toxicity in po dosed mouse; type: organism-based; conditions: in vivo
outcomeMeasure: LD50

# LD50 lookup, item `CCn1cc(C(=O)O)c(=O)c2cc(F)c(N3CCN(CN4C(=O)/C(=N\c5ccc(S(=O)(=O)Nc6ncnc(OC)c6OC)cc5)c5ccccc54)CC3)cc21`
> 4000 mg/kg

---

tested on: Staphylococcus aureus; test: Antibacterial activity against Staphylococcus aureus after 24 hrs by paper disc diffusion technique; format: functional; conditions: Staphylococcus aureus, 24 h; read-out: MIC
outcomeMeasure: MIC

# MIC lookup, item `COc1ccc(/C=N/c2ccc(/N=C3/C(=O)N(CN4CCN(c5cc6c(cc5F)c(=O)c(C(=O)O)cn6C5CC5)CC4)c4ccc(F)cc43)cc2)cc1`
7.81 to 125 µg/mL

---

tested on: Staphylococcus aureus; assay: Antibacterial activity against Staphylococcus aureus after 24 hrs by paper disc diffusion technique; format: functional; settings: Staphylococcus aureus, 24 h; read-out: MIC
outcomeMeasure: MIC

Use these answered entries as a reference point.
>>> valueobserved("O=C(O)c1cn(C2CC2)c2cc(N3CCN(CN4C(=O)/C(=N/c5ccc(/N=C/c6cccc([N+](=O)[O-])c6)cc5)c5cc(F)ccc54)CC3)c(F)cc2c1=O")
"7.81 to 125 mg/L"
>>> valueobserved("O=C(O)c1cn(C2CC2)c2cc(N3CCN(CN4C(=O)/C(=N/c5ccc(/N=C/c6ccc(O)cc6)cc5)c5cc(F)ccc54)CC3)c(F)cc2c1=O")
"7.81 to 125 mg/L"
>>> valueobserved("O=C(O)c1cn(C2CC2)c2cc(N3CCN(CN4C(=O)/C(=N/c5ccc(/N=C/c6ccccc6)cc5)c5cc(F)ccc54)CC3)c(F)cc2c1=O")
"7.81 to 125 mg/L"

Let us examine a further case.
# MIC lookup, item `O=C(O)c1cn(C2CC2)c2cc(N3CCNCC3)c(F)cc2c1=O`
3.9 to 15.6 mg/L
